Sourced from patent US7435820B2

Biological target: human KDR enzyme (Homo sapiens, UniProt P35968)
Construct: The cytoplasmic domain of the human KDR enzyme was cloned in GST fusion form; GST; made in house; host or cells: SF21 insect cells (baculovirus, pFastBac)
Sequence (P35968 786-1356 limits assumed): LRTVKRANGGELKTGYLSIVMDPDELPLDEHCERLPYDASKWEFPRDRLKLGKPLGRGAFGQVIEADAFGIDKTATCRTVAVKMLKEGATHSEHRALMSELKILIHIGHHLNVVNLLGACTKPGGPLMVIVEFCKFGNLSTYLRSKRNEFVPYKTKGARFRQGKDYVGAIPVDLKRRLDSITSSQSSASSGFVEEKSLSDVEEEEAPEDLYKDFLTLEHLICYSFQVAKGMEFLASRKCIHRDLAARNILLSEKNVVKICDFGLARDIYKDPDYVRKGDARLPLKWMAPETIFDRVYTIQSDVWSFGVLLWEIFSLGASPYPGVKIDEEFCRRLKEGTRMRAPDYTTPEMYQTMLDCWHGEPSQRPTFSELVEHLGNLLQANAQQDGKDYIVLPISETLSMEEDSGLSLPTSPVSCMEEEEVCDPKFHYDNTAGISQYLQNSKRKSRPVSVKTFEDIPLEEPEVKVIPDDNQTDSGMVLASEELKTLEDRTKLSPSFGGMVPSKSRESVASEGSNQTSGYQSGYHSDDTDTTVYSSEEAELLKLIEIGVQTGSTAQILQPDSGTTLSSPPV
Assay: KDR kinase inhibition: phosphorylation of PLCγ SH2-SH3 substrate by KDR enzyme, 33P-ATP scintillation plate
Type: biochemical
Conditions: read-out: KDR % Inhib. 10 μM
Experimental: The inhibitory effect of the compounds is determined in an assay for phosphorylation of substrate by the KDR enzyme in vitro using a scintillation technique (96-well plate, NEN). The cytoplasmic domain of the human KDR enzyme was cloned in GST fusion form into the baculovirus expression vector pFastBac. […] The KDR kinase activity is measured in 20 mM MOPS, 10 mM MgCl2, 10 mM MnCl2, 1 mM DTT, 2.5 mM EGTA, 10 mM b-glycerophosphate, pH=7.2, in the presence of 10 mM MgCl2, 100 μM Na3VO4 and 1 mM NaF. […]
metric_name: inhibition at 10 µM
Express your answer as a number followed by its unit.

Answered examples (2):
INSERT INTO results (smiles_representation, metric_name, data_value) VALUES
  ('Cc1cc2nc(-c3[nH]nc4c3CCN(C(=O)Nc3ccccc3Cl)C4)[nH]c2cc1C', 'inhibition at 10 µM', '12.7%'),
  ('COc1ccc(S(=O)(=O)N2CCc3c(n[nH]c3-c3nc4cc(C)c(C)cc4[nH]3)C2)cc1', 'inhibition at 10 µM', '18.1%');

Kindly consider the entry below.
Q: Give the value of inhibition at 10 µM reported for the following: Cc1cc2nc(-c3[nH]nc4c3CCN(S(=O)(=O)Cc3ccccc3)C4)[nH]c2cc1C
A: 70.8%
